test: Oral bioavailability in male Sprague-Dawley rat at 2 mg/kg; format: ADME, organism-based; details: in vivo
I'd be grateful if you could share measured bioavailability for these entries.
The answer is to be given in %; state only the numeric part.

Q: Return reported bioavailability; argument: C[C@H](Nc1ncnc(N)c1C#N)c1nc2ccc(F)cc2n1-c1cccnc1
A: 45

Q: Return reported bioavailability; argument: C[C@H](Nc1ncnc(N)c1C#N)c1nc2ccc(F)cc2n1-c1cncc(F)c1
A: 41

Q: Return reported bioavailability; argument: C[C@H](Nc1ncnc(N)c1C#N)c1nc2ccc(F)cc2n1-c1ccccn1
A: 58
